TARGET UNDER TEST: CYP2C19 (Homo sapiens, UniProt P33261)
Sequence (P33261 whole entry): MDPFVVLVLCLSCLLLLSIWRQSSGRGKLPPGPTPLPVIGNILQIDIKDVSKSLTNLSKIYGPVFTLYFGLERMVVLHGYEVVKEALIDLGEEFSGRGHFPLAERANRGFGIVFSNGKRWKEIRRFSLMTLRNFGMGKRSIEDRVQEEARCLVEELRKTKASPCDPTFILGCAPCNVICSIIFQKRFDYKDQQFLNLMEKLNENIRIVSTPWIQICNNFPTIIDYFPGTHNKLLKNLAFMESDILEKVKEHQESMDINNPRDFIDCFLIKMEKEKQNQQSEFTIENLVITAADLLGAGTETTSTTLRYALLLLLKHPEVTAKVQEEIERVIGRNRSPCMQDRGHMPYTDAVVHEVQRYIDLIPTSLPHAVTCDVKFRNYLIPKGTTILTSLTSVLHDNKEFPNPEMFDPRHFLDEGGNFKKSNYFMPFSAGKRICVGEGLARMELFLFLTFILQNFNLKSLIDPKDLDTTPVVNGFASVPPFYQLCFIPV
ASSAY DETAILS: Inhibition of human CYP2C19 at 3 uM
Format: ADME
METRIC NAME: inhibition at 3 µM (%)

{"columns": ["MOLECULE", "NUMERIC VALUE"],
 "data": [
  ["COc1ccc2c(c1)c1c(n2S(=O)(=O)c2ccccc2)CCC(N(C)C)C1 (racemic)", 50],
  ["CN(C)C1CCc2c(c3ccccc3n2S(=O)(=O)c2cccc(C(F)(F)F)c2)C1 (racemic)", 50],
  ["CN(C)C1CCc2c(c3cc(Br)ccc3n2S(=O)(=O)c2ccccc2)C1 (racemic)", 50]
]}

====

TARGET UNDER TEST: 5-hydroxytryptamine receptor 6 (Homo sapiens)
Sequence (P50406 whole entry): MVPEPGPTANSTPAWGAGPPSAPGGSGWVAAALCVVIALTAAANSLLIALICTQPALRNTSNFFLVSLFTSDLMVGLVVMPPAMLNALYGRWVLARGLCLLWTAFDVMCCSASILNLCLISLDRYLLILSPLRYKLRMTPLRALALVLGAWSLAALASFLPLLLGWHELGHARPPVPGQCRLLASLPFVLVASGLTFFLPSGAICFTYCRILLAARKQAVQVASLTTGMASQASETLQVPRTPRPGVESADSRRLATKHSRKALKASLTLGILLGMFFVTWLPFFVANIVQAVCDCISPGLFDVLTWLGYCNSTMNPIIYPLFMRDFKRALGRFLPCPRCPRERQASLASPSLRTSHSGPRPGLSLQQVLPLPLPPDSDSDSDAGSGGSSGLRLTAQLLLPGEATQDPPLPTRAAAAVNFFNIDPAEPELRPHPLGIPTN
ASSAY DETAILS: Displacement of [3H]LSD from human cloned 5-HT6 receptor expressed in HEK293 cells
Format: cell-based
pKi: −log10 of the molar value.
METRIC NAME: pKi

Below, each entry is followed by its recorded pKi result.
{"columns": ["COMPOUND", "NUMERIC VALUE"],
 "data": [
  ["CN(C)C1CCc2c(c3cc(F)ccc3n2S(=O)(=O)c2ccccc2Br)C1 (racemic)", 8.30],
  ["COc1ccc2c(c1)c1c(n2S(=O)(=O)c2ccccc2F)CCC(N(C)C)C1 (racemic)", 8.44],
  ["Cc1ccc(S(=O)(=O)n2c3c(c4cc(Cl)ccc42)CC(N(C)C)CC3)cc1 (racemic)", 7.74],
  ["COc1ccc(S(=O)(=O)n2c3c(c4cc(SC)ccc42)CC(N(C)C)CC3)cc1 (racemic)", 8.16],
  ["CSc1ccc2c(c1)c1c(n2S(=O)(=O)c2ccccc2)CCC(N(C)C)C1 (racemic)", 8.34]
]}

a. CN(C)C1CCc2c(c3cc(F)ccc3n2S(=O)(=O)c2cccc(Cl)c2)C1 (racemic)
b. COc1ccc2c(c1)c1c(n2S(=O)(=O)c2cccc(C(F)(F)F)c2)CCC(N)C1 (racemic)
c. CN(C)C1CCc2c(c3cc(Br)ccc3n2S(=O)(=O)c2ccccc2)C1 (racemic)
Request: Output the entries ranked by pKi from maximum down to minimum. Please list each label once, in the requested order.
Response: c, a, b
(c: 8.74, a: 8.30, b: 7.41)

====

ASSAY DETAILS: AUC in Wistar rat at 10 mg/kg, po
Assay type: ADME, organism-based
Parameters: dose 10 mg/kg, route oral
CONDITIONS USED: plasma
METRIC NAME: AUC (ng·h/mL)
Unit ng·h/mL implied. Number only.

AUC recorded for this compound, COc1ccc2c(c1)c1c(n2S(=O)(=O)c2ccccc2)CCC(N(C)C)C1 (racemic) , is 544

====

TARGET UNDER TEST: 5-hydroxytryptamine receptor 2A (Homo sapiens) (UniProt P28223)
Sequence (P28223 whole entry): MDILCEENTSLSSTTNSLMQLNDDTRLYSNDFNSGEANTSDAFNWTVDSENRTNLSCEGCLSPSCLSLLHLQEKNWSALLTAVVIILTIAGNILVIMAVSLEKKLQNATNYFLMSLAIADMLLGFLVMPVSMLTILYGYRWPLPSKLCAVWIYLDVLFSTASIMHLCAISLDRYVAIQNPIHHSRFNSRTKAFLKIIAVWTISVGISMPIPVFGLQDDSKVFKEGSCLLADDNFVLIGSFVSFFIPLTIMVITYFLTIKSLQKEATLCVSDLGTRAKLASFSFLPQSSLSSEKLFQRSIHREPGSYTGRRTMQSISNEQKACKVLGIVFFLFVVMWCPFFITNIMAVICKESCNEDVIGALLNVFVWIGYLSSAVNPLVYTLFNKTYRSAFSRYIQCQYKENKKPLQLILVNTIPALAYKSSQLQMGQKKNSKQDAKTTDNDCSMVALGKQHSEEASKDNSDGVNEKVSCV
ASSAY DETAILS: Inhibition of 5-HT2A receptor at 1 uM
METRIC NAME: inhibition (%)

{"columns": ["MOLECULE", "NUMERIC VALUE"],
 "data": [
  ["CN(C)C1CCc2c(c3ccccc3n2S(=O)(=O)c2cccc(Cl)c2)C1 (racemic)", 7.37]
]}

A. CN(C)C1CCc2c(c3ccccc3n2S(=O)(=O)c2cccc(C(F)(F)F)c2)C1 (racemic)
B. CN(C)C1CCc2c(c3cc(Br)ccc3n2S(=O)(=O)c2ccccc2)C1 (racemic)
Request: Choose between A and B : whose measured inhibition value is numerically larger? Refer to your chosen entry by its label in the reply.
Response: B
(B: 15.2%, A: 5.6%)

====

ASSAY DETAILS: Clearance in Wistar rat at 10 mg/kg, iv
Assay type: ADME, organism-based
Parameters: dose 10 mg/kg, route intravenous
CONDITIONS USED: in vivo
METRIC NAME: clearance (mL/min/kg)
Unit mL/min/kg implied. Number only.

clearance recorded for this molecule, COc1ccc2c(c1)c1c(n2S(=O)(=O)c2ccccc2)CCC(N(C)C)C1 (racemic) , is 73.8

====

TARGET UNDER TEST: UniProt P50406
ASSAY DETAILS: Antagonist activity at human recombinant 5-HT6 receptor expressed in CHO cells assessed as inhibition of 5-HT-stimulated cAMP accumulation after 4 hrs by luciferase reporter gene assay
pIC50: −log10 of the molar value.
METRIC NAME: pIC50

{"columns": ["MOLECULE", "TARGET UNDER TEST", "METRIC NAME", "NUMERIC VALUE"],
 "data": [
  ["CN(C)C1CCc2c(c3cc(Br)ccc3n2S(=O)(=O)c2ccccc2)C1 (racemic)", "UniProt P50406", "pIC50", 5.69]
]}

P. CN(C)C1CCc2c(c3ccccc3n2S(=O)(=O)c2cccc(C(F)(F)F)c2)C1 (racemic)
Q. COc1ccc2c(c1)c1c(n2S(=O)(=O)c2ccccc2)CCC(N(C)C)C1 (racemic)
Request: Looking at P and Q , which one comes out lower in pIC50 terms? Refer to your chosen entry by its label in the reply.
Response: P

====

ASSAY DETAILS: Cmax in Wistar rat at 10 mg/kg, po
Type: ADME, organism-based
Design: dose 10 mg/kg, route oral
CONDITIONS USED: in vivo
METRIC NAME: Cmax (ng/mL)
Unit ng/mL implied. Number only.

Cmax recorded for this compound, COc1ccc2c(c1)c1c(n2S(=O)(=O)c2ccccc2)CCC(N(C)C)C1 (racemic) , is 90

====

ASSAY DETAILS: Half life in Wistar rat at 10 mg/kg, iv
Assay type: ADME, organism-based
Design: dose 10 mg/kg, route intravenous
CONDITIONS USED: in vivo
METRIC NAME: half-life (h)
Unit h implied. Number only.

half-life recorded for this compound, COc1ccc2c(c1)c1c(n2S(=O)(=O)c2ccccc2)CCC(N(C)C)C1 (racemic) , is 3.86

====

TARGET UNDER TEST: Histamine H3 receptor (Homo sapiens)
ASSAY DETAILS: Inhibition of histamine H3 receptor at 1 uM
METRIC NAME: inhibition (%)

{"columns": ["COMPOUND", "inhibition [%]"],
 "data": [
  ["CN(C)C1CCc2c(c3cc(Br)ccc3n2S(=O)(=O)c2ccccc2)C1 (racemic)", 23.4],
  ["COc1ccc2c(c1)c1c(n2S(=O)(=O)c2ccccc2)CCC(N(C)C)C1 (racemic)", 22.8]
]}

a. CN(C)C1CCc2c(c3ccccc3n2S(=O)(=O)c2cccc(C(F)(F)F)c2)C1 (racemic)
b. CN(C)C1CCc2c(c3ccccc3n2S(=O)(=O)c2cccc(Cl)c2)C1 (racemic)
Request: Looking at a and b , which one comes out lower in inhibition terms? Refer to your chosen entry by its label in the reply.
Response: b
(b: 11%, a: 26.8%)
